Test: chemical genetic growth profiling, strain panel (AID 1159580);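 further: tested at 20 µM; growth read once vehicle control cultures reached saturation at 30 °C; 1 = growth at the plate median or of vehicle wells; lower values mean less growth of the strain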
Details: S. cerevisiae deletion strains, growth OD, locus YNL153C, strain GIM3, active compounds read low
The whole screen tested about 5,500 compounds, of which about 2,000 (36%) were called active. Another 18% or so got no clear call; they are omitted. This is one part of the list.
molecules and their reported normalized growth
I only need the number, thanks.

Reference set (10 entries):
>  <MOLECULE>
COC(=O)C/C(N)=C(\C#N)C(=O)OC

>  <normalized growth>
1.04

$$$$
>  <MOLECULE>
O=S(=O)(Oc1ccc(OCc2ccccc2)cc1)c1cc(Cl)cc(Cl)c1

>  <normalized growth>
0.998

$$$$
>  <MOLECULE>
CN[C@@H]1[C@H](O)[C@H](NC)[C@H]2O[C@@]3(O)C(=O)C[C@@H](C)O[C@H]3O[C@@H]2[C@H]1O

>  <normalized growth>
1

$$$$
>  <MOLECULE>
CCCN(CCc1ccccc1)C1CCc2c(O)cccc2C1 (stereo not given)

>  <normalized growth>
0.957

$$$$
>  <MOLECULE>
CC(=O)NNC(=O)N1Cc2ccccc2Oc2ccc(Cl)cc21

>  <normalized growth>
1.02

$$$$
>  <MOLECULE>
Cc1ccc2c(c1)C1(C)CCCC(C)(C(=O)O)C1CC2 (stereo not given)

>  <normalized growth>
0.957

$$$$
>  <MOLECULE>
CCOC(CN(c1ccc(F)cc1)S(=O)(=O)c1ccc(F)cc1F)OCC

>  <normalized growth>
1.01

$$$$
>  <MOLECULE>
CN(C)CCC(c1ccc(Cl)cc1)c1ccccn1 (stereo not given)

>  <normalized growth>
0.998

$$$$
>  <MOLECULE>
CC(C)CCCC(C)C1CCC2C3C[C@@H](O)[C@@]4(O)C[C@@H](O)CC[C@]4(C)C3CC[C@]12C (stereo not given in full)

>  <normalized growth>
1.02

$$$$
>  <MOLECULE>
CC(C)c1ccc2c(c1)CCC1[C@](C)(CN)CCC[C@]21C (stereo not given in full)

>  <normalized growth>
0.262

$$$$

Need normalized growth of CC(C)CCCC(C)[C@H]1CCC2C3CC[C@@H]4C[C@H](O)CC[C@]4(C)C3CC[C@@]21C (stereo not given in full) , thanks. 1.01

Reported normalized growth, molecule NCCCCCCNS(=O)(=O)c1cccc2c(Cl)cccc12 : ____ 1

Item under review: CCC(C)[C@H]1O[C@]2(C=C[C@@H]1C)C[C@@H]1C[C@@H](C/C=C(\C)[C@@H](OC3C[C@H](OC)C(O[C@H]4C[C@H](OC)[C@@H](O)[C@H](C)O4)[C@H](C)O3)[C@@H](C)/C=C/C=C3\CO[C@@H]4[C@H](O)C(C)=C[C@@H](C(=O)O1)[C@]34O)O2 (stereo not given in full) . Reported normalized growth? 0.821

Which normalized growth value belongs to Fc1cc(F)cc(COc2cc(Cl)cc(Cl)c2)c1 ? 1

Using the record for COc1c(Br)cc(/C(N)=N\OC(=O)c2c(-c3c(Cl)cccc3Cl)noc2C)cc1Br , report its normalized growth. 0.998

Please give the measured normalized growth for this molecule: NCC(N)C(=O)c1ccccc1 (stereo not given) 1.01

Look up normalized growth: CCC(=O)c1ccc2c(c1)N(CCCN(C)C)c1ccccc1S2 1.16

For the molecule C[N+]1(C)CCC(OC(=O)C(c2ccccc2)c2ccccc2)CC1 , what normalized growth is on record? 1.01

Given the molecule CN(C)CCCN1c2ccccc2Sc2ccccc21 , what is its reported normalized growth? 1.09

What normalized growth value was documented for this molecule, COc1ccc([C@@H]2Sc3ccccc3N(CCN(C)C)C(=O)[C@@H]2OC(C)=O)cc1 ? 1.01

These entries and their values trace back to PubChem BioAssay AID1159580.
